Recorded kon by entry
# system-under-test: T1, HER3 extracellular domain recombinant protein (human, UniProt P21860 20-643)
# T1 construct: extracellular domain; also called HER3 extracellular domain protein; HER3 protein
# T1 sequence (P21860 20-643): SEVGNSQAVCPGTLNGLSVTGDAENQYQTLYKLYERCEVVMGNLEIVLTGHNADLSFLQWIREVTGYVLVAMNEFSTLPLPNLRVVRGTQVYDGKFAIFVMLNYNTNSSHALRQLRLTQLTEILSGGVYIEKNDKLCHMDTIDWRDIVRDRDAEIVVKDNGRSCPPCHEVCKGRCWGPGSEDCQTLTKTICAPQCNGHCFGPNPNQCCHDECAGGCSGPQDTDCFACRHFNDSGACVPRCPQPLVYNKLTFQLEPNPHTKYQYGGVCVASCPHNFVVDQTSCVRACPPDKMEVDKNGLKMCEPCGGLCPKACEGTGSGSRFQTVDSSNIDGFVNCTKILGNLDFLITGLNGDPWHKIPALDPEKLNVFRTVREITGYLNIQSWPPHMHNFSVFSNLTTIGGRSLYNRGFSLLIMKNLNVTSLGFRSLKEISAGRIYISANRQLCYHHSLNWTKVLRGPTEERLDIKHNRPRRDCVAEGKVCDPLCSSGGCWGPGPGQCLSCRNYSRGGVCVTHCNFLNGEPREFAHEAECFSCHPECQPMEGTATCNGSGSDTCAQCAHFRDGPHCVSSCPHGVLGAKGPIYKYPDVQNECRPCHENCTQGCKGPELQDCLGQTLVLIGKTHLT
# test-summary: SPR, ProteOn XPR36; antibody captured by goat anti-human antibody, HER3 extracellular domain 1.25-20 nM as analyte, Langmuir model
Quick note: give the figure in M⁻¹ s⁻¹, leave out the unit.

// below: answered binders
binder	unit-string	kon
humanized antibody hu1044 (VL69, VH38 back mutation) (antibody, V domains shown, also called final humanized antibody hu1044) VH: QVQLVQSGAEVKKPGSSVKVSCKASGGTFSNYWIDWVKQAPGQGLEWMGEILPGSGGTDYNEKFKGRVTITADTSTSTAYMELSSLRSEDTAVYYCARDDYDVFAYWGQGTLVTVSS VL: DIVMTQSPGTLSLSPGERATLSCRSSKSLLHSNGITYLYWYQQKPGQAPRLLIYQMSNLASGIPDRFSSSGSGTDFTLTISRLEPEDFAVYYCAQNLELPWTFGQGTKVEIKR	M⁻¹ s⁻¹	875000
humanized antibody hu1044-4 (VL69, VH68 back mutation) (antibody, human IgG1, V domains shown) VH: QVQLVQSGAEVKKPGSSVKVSCKASGGTFSNYWIDWVRQAPGQGLEWMGEILPGSGGTDYNEKFKGRATITADTSTSTAYMELSSLRSEDTAVYYCARDDYDVFAYWGQGTLVTVSS VL: DIVMTQSPGTLSLSPGERATLSCRSSKSLLHSNGITYLYWYQQKPGQAPRLLIYQMSNLASGIPDRFSSSGSGTDFTLTISRLEPEDFAVYYCAQNLELPWTFGQGTKVEIKR	M⁻¹ s⁻¹	841000

Query: Tell me the measured kon of humanized antibody hu1044-7 (VL63/69, VH67/68 back mutation) (antibody, human IgG1, V domains shown) VH: QVQLVQSGAEVKKPGSSVKVSCKASGGTFSNYWIDWVRQAPGQGLEWMGEILPGSGGTDYNEKFKGKATITADTSTSTAYMELSSLRSEDTAVYYCARDDYDVFAYWGQGTLVTVSS VL: DIVMTQSPGTLSLSPGERATLSCRSSKSLLHSNGITYLYWYQQKPGQAPRLLIYQMSNLASGVPDRFSSSGSGTDFTLTISRLEPEDFAVYYCAQNLELPWTFGQGTKVEIKR , please.
Result: 1e+06
